Test system: P. rettgeri TN 338
METHOD SUMMARY: Minimal inhibitory concentration (M.I.C.), agar dilution method
Format: cell-based, Proteus rettgeri
MEASUREMENT CONDITIONS: TSA, inoculum 10^7 /ml
READOUT TYPE: minimal inhibitory concentration (M.I.C.)

# annotated cases, reported minimal inhibitory concentration (M.I.C.) shown
* CCCNC(=O)O/N=C(\C(=O)NC1C(=O)N2C(C(=O)O)=C(COC(N)=O)CSC12)c1csc(=N)[nH]1 (stereo not drawn) | ≤ 0.012
* O=C(Cc1cccs1)N[C@@H]1C(=O)N2C(C(=O)[O-])=C(C[n+]3ccccc3)CS[C@H]12 [Cephaloridine, reference compound] | 1.56
* CCCNC(=O)O/N=C(\C(=O)NC1C(=O)N2C(C(=O)O)=C(CSc3nnnn3C)CSC12)c1csc(=N)[nH]1 (stereo not drawn) | ≤ 0.012
* CC(C)NC(=O)O/N=C(\C(=O)NC1C(=O)N2C(C(=O)O)=C(COC(N)=O)CSC12)c1csc(=N)[nH]1 (stereo not drawn) | ≤ 0.012
* CCNC(=O)O/N=C(\C(=O)NC1C(=O)N2C(C(=O)O)=C(CSc3nnnn3C)CSC12)c1csc(=N)[nH]1 (stereo not drawn) | ≤ 0.012

We next turn to a different compound, shown below.
Retrieve minimal inhibitory concentration (M.I.C.) on P. rettgeri TN 338; query CC1=C(C(=O)O)N2C(=O)C(NC(=O)/C(=N\OC(=O)NC(C)C)c3csc(=N)[nH]3)C2SC1 (stereo not drawn)
0.1

###

Test system: P. rettgeri TN 338
METHOD SUMMARY: Minimal inhibitory concentration (M.I.C.), agar dilution method
Assay type: cell-based, Proteus rettgeri
MEASUREMENT CONDITIONS: TSA, inoculum 10^7 /ml
READOUT TYPE: minimal inhibitory concentration (M.I.C.)

# annotated cases, reported minimal inhibitory concentration (M.I.C.) shown
• CNC(=O)O/N=C(\C(=O)NC1C(=O)N2C(C(=O)O)=C(CSc3nnc(CO)n3C)CSC12)c1csc(=N)[nH]1 (stereo not shown) = ≤ 0.2
• CNC(=O)O/N=C(\C(=O)NC1C(=O)N2C(C(=O)O)=C(CSc3cnn[nH]3)CSC12)c1csc(=N)[nH]1 (stereo not shown) = ≤ 0.2
• CCCNC(=O)O/N=C(\C(=O)NC1C(=O)N2C(C(=O)O)=C(COC(C)=O)CSC12)c1csc(=N)[nH]1 (stereo not shown) = ≤ 0.012

We next turn to a different compound, shown below.
Determine from records and report minimal inhibitory concentration (M.I.C.) for CCNC(=O)O/N=C(\C(=O)NC1C(=O)N2C(C(=O)O)=C(COC(C)=O)CSC12)c1csc(=N)[nH]1 (stereo not shown)
≤ 0.012

###

Test system: E. coli 0-111
METHOD SUMMARY: Minimal inhibitory concentration (M.I.C.), agar dilution method
Format: cell-based, Escherichia coli
MEASUREMENT CONDITIONS: TSA, inoculum 10^7 /ml
Lab note: anything with minimal inhibitory concentration (M.I.C.) at or over 0.05 counts as Condition met; the rest go in Condition not met.

* CCCNC(=O)O/N=C(\C(=O)NC1C(=O)N2C(C(=O)O)=C(CSc3nnnn3C)CSC12)c1csc(=N)[nH]1 (stereo not shown) [Example II - 14] | Condition not met
* CC(=O)OCC1=C(C(=O)[O-])N2C(=O)C(NC(=O)Cc3cccs3)[C@H]2SC1.[Na+] (stereo partly shown) [Cephalothin, reference compound] | Condition met
* CNC(=O)O/N=C(\C(=O)NC1C(=O)N2C(C(=O)O)=C(CSc3nnc(C)s3)CSC12)c1csc(=N)[nH]1 (stereo not shown) [Example II - 5] | Condition met

Does the reported minimal inhibitory concentration (M.I.C.) for CC(C)NC(=O)O/N=C(\C(=O)NC1C(=O)N2C(C(=O)O)=C(CSc3nnnn3C)CSC12)c1csc(=N)[nH]1 (stereo not shown) [Example II - 18] fall at or above the 0.05 mark?
Condition not met

Does the reported minimal inhibitory concentration (M.I.C.) for CCCCNC(=O)O/N=C(\C(=O)NC1C(=O)N2C(C(=O)O)=C(COC(C)=O)CSC12)c1csc(=N)[nH]1 (stereo not shown) [Example II - 20] fall at or above the 0.05 mark?
Condition not met

###

Give measured minimal inhibitory concentration (M.I.C.) for each item. Keep answers brief.
Tested on: S. marcescens IFO 12648
METHOD SUMMARY: Minimal inhibitory concentration (M.I.C.), agar dilution method
Type: cell-based, Serratia marcescens
MEASUREMENT CONDITIONS: TSA, inoculum 10^7 /ml
One number for each entry.

* CCNC(=O)O/N=C(\C(=O)NC1C(=O)N2C(C(=O)O)=C(C)CSC12)c1csc(=N)[nH]1 (stereo not shown) | 100

Determine from records and report minimal inhibitory concentration (M.I.C.) for CC(C)NC(=O)O/N=C(\C(=O)NC1C(=O)N2C(C(=O)O)=C(CSc3nnnn3C)CSC12)c1csc(=N)[nH]1 (stereo not shown)
3.13

###

System: C. freundii GN 1706
METHOD SUMMARY: Minimal inhibitory concentration (M.I.C.), agar dilution method
Format: cell-based, Citrobacter freundii
MEASUREMENT CONDITIONS: TSA, inoculum 10^7 /ml
Lab note: anything with minimal inhibitory concentration (M.I.C.) at or over 0.8 counts as t; the rest go in f.

Consider the following illustrative entries.
* CNC(=O)O/N=C(\C(=O)NC1C(=O)N2C(C(=O)O)=C(CSc3nnc(C)s3)CSC12)c1csc(=N)[nH]1 (centres unmarked) [Example II - 5] | t
* CC1=C(C(=O)O)N2C(=O)C(NC(=O)/C(=N\OC(=O)NC(C)C)c3csc(=N)[nH]3)C2SC1 (centres unmarked) [Example II - 19] | t
* CNC(=O)O/N=C(\C(=O)NC1C(=O)N2C(C(=O)O)=C(CSc3nc(C)ns3)CSC12)c1csc(=N)[nH]1 (centres unmarked) [Example IV - 8] | t

Shifting focus to the compound that follows.
Does the reported minimal inhibitory concentration (M.I.C.) for CCNC(=O)O/N=C(\C(=O)NC1C(=O)N2C(C(=O)O)=C(COC(N)=O)CSC12)c1csc(=N)[nH]1 (centres unmarked) [Example II - 8] fall at or above the 0.8 mark?
f

###

System: C. freundii GN 1706
METHOD SUMMARY: Minimal inhibitory concentration (M.I.C.), agar dilution method
Type: cell-based, Citrobacter freundii
MEASUREMENT CONDITIONS: TSA, inoculum 10^7 /ml
Give measured minimal inhibitory concentration (M.I.C.) for each item. Keep answers brief.
Numbers only.

# annotated cases, reported minimal inhibitory concentration (M.I.C.) shown
- CCNC(=O)O/N=C(\C(=O)NC1C(=O)N2C(C(=O)O)=C(CSc3nnnn3C)CSC12)c1csc(=N)[nH]1 (stereo not shown): 0.78
- CCNC(=O)O/N=C(\C(=O)NC1C(=O)N2C(C(=O)O)=C(C)CSC12)c1csc(=N)[nH]1 (stereo not shown): 12.5
- CNC(=O)O/N=C(\C(=O)NC1C(=O)N2C(C(=O)O)=C(CSc3nc(CC(=O)O)cs3)CSC12)c1csc(=N)[nH]1 (stereo not shown): 3.13
- CNC(=O)O/N=C(\C(=O)NC1C(=O)N2C(C(=O)O)=C(COC(C)=O)CSC12)c1csc(=N)[nH]1 (stereo not shown): 0.39
- CCCNC(=O)O/N=C(\C(=O)NC1C(=O)N2C(C(=O)O)=C(C)CSC12)c1csc(=N)[nH]1 (stereo not shown): 12.5
- CNC(=O)O/N=C(\C(=O)NC1C(=O)N2C(C(=O)O)=C(CSc3nnnn3CCN(C)C)CSC12)c1csc(=N)[nH]1 (stereo not shown): 0.78

Determine from records and report minimal inhibitory concentration (M.I.C.) for CC(C)NC(=O)O/N=C(\C(=O)NC1C(=O)N2C(C(=O)O)=C(CSc3nnnn3C)CSC12)c1csc(=N)[nH]1 (stereo not shown)
0.78

###

Give measured minimal inhibitory concentration (M.I.C.) for each item. Keep answers brief.
Test system: S. aureus 1840
METHOD SUMMARY: Minimal inhibitory concentration (M.I.C.), agar dilution method
Format: cell-based, Staphylococcus aureus
MEASUREMENT CONDITIONS: TSA, inoculum 10^7 /ml
One number for each entry.

# annotated cases, reported minimal inhibitory concentration (M.I.C.) shown
* CNC(=O)O/N=C(\C(=O)NC1C(=O)N2C(C(=O)O)=C(CSc3cnn[nH]3)CSC12)c1csc(=N)[nH]1 (stereo not shown) | 3.13
* Cc1nnc(SCC2=C(C(=O)[O-])N3C(=O)C(NC(=O)Cn4cnnn4)[C@H]3SC2)s1.[Na+] (stereo partly shown) [Cefazolin, reference compound] | 1.56
* CC1=C(C(=O)O)N2C(=O)C(NC(=O)/C(=N\OC(=O)NC(C)C)c3csc(=N)[nH]3)C2SC1 (stereo not shown) | 25

We next turn to a different compound, shown below.
Determine from records and report minimal inhibitory concentration (M.I.C.) for CCNC(=O)O/N=C(\C(=O)NC1C(=O)N2C(C(=O)O)=C(C)CSC12)c1csc(=N)[nH]1 (stereo not shown)
25
